- measured.target: T1, recombinant YFV E protein (soluble E, sE; YFV Asibi strain) (Yellow fever virus, Asibi strain, UniProt Q6DV88 286-678)
- T1 construct: also called YFV E antigen; YFV E monomer
- T1 sequence (Q6DV88 286-678): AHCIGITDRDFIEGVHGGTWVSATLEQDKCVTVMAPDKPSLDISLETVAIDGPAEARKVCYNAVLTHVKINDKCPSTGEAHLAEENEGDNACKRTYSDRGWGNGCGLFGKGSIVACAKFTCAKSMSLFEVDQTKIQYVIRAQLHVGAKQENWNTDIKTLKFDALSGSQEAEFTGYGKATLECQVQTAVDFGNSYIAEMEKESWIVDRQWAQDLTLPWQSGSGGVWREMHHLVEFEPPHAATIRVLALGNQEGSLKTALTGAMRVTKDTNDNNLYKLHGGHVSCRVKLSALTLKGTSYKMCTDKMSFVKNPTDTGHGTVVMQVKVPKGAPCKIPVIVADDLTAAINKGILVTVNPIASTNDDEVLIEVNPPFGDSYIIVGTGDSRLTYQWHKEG
- assay: BLI monovalent (IgG on tip)
quantity.kind: pKd
// scale note: pKd = -log10(conc_M); give the bare number

Please look up its pKd: ADI-42219 (antibody, V domains shown, full-length IgG; also called Antibody Number 77) VH: QVQLVESGGGVVQPGRSLRLSCAASGFTFSSLAMHWVRQAPGKGLEWVATISYDVSNKYYADSVKGRFTISRDNSKNTLFLQMNSLRPEDTAVYYCARGYTGYDGFDYWGQGTLVTVSS VL: QPVLTQPRSVSGSPGQSVTISCTGTSSDVGGYNYVSWYQQHPGKAPKLMISDVSKRPSGVPDRFSGSKSGNTASLTISGLQADDEADYYCCSYATNYGVVFGGGTKVTVL
8.39

Next: ADI-46591 (antibody, V domains shown, full-length IgG; also called Antibody Number 39) VH: QVQLQQWGPELVKPSGTLSLTCTVSGGSISSISWWSWVRQSPGKGLEWIGEINHSGSTVYNPSLKSRVTISVDKSKKQFSLKLRSVTAADTAVYYCVRYCSSTSCYGLNGMDVWGQGTTVTVSS VL: QSVLTQPPSVSAAPGQKVTISCSGSSSNIGSNFVSWYQQLPGTAPKLLIYDNNKRPSGIPDRFSGSKSGTSATLAITGLQTGDEADYYCGTWDTRLSALFGGGTKVTVL
8.02

Next: ADI-42194 (antibody, V domains shown, full-length IgG; also called Antibody Number 29) VH: EVQLQESGPGLVKPSETLSLTCTVSGGSVSSGSYYWSWIRQPPGKGLEWIGYIYDSGNTNYNPSLKSRVTISVDTSKRQFSLRLTSVTAADTAVYYCAKVEEDGYTNVVRDYWGQGTLVTVSS VL: EIVMTQSPATLSLSPGERATLSCRASQSVSNYLAWYQQKPGQAPRLLISDASSRATGIPARFRGSGSGTDFTLTISSLEPEDFAVYYCLQRTNWPFTFGPGTKVEIK
8.26

Next: ADI-49189 (antibody, V domains shown, full-length IgG; also called Antibody Number 30) VH: EVQLVESGGGLVKPGGSLRLSCAASGFTFSDYYMSWIRQAPGKGLECIACISSSGSMIYYADSVKGRFTISRDNAKNSLYLQLNSLRVEDTAVYYCAREGTRGRMDWGQGTLVTVSS VL: QSVLTQPASVSGSPGQSITISCTGTSSDIGGYNYVSWYQQHPGKVPKLVIYDVSNRPSGVSNRFSGSKSGNTASLTISGLQAEDEADYYCSSYTSGTTLGVFGTGTKLTVL
7.90

Next: ADI-49032 (antibody, V domains shown, full-length IgG; also called Antibody Number 119) VH: EVQLVQSGGGLVQPGGSLRLSCVGSGLTLSSSAMSWVRQAPGKGLECVSGITGSGSDSSYAASVKGRFTISRDNSKNTVYLQMNSLRAEDTAVYYCAKDLTHRLGSIFGKLTFDAFDIWGPGTMVTVSS VL: DIRLTQSPSTLSASVGDRVTITCRASQSISGWLAWYQQKPGKAPKLLIYKASILESGVPSRFSGSQSGTEFTLTISSLQPDDFATYYCQQYNNFWTFGQGTKLEIK
9.31

Next: ADI-48950 (antibody, V domains shown, full-length IgG; also called Antibody Number 142) VH: EVQLVESGGGVVQPGRSLRLSCAVSGFTFSTSPLHWVRQAPGKGLEWVAVSSFVATDKYYADSVKGRFTVSRDNSKNTLYLQMNSLRPEDTAVYYCARGFGELPGFDIWGQGTMVTVSS VL: SYVLTQPPSASGSPGQSVTISCTGTSSDFGGYNYVSWYQQHPGKAPKLMVYEVAKRPSGVPDRFSGSKSGNTASLTVSGLQAEDEADYYCSSYAGSNNFVVFGGGTKLTVL
8.82

Next: ADI-42188 (antibody, V domains shown, full-length IgG; also called Antibody Number 32) VH: EVQLLESGPGLVKPSGTLSLTCAVSGGSISSGNWWSWVRQPPGKGLEWIGEIYHSGSANYNPSLKSRVTISVDKSKNQFSLKLTSVTAADTAVYYCARVVWEYSNAWCVDFWGQGTTVTVSS VL: QSVLTQPPSVSAAPGQKVTISCSGSSSNIGNNYVSWYQQLPGTAPKLLIYDNNKRPSGIPDRFSGSKSGTSATLGITGLQTGDEADYYCETWDSSLGVVVFGGGTKLTVL
7.43

Next: ADI-48955 (antibody, V domains shown, full-length IgG; also called Antibody Number 40) VH: QVQLVQSGGGLVNPGGSLRLSCAASGFTFTDYYMSWIRQAPGKGLEWVSYISSSGNTRYYADSVKGRFTISRDNAKNSLSLQMNSLRPEDTAIYYCARDGSLVNAIDYWGQGTLVTVSS VL: QSVLTQPPSVSAAPGQKVTISCSGSSSNFGNDYVSWYQQLPGTAPKLLIYDNDKRPSGIPDRFSGSKSGTSATLGITGLQTGDEADYYCGTWDTSLSAAWVFGGGTKVTVL
8.69

Next: ADI-42233 (antibody, V domains shown, full-length IgG; also called Antibody Number 66) VH: EVQLVESGGGLVKPGGSLRLSCVASGFTFSRYSMNWVRQAPGKGLEWVSSISHSGRYIYYADSEKGRFTISRDNAKNSLYLQMNSLRAEDTAVYYCARDHYFDSSGDYLSYYYNGMDVWGQGTTVTVSS VL: ETTLTQSPGTLSLSPGERATLSCRASRSVSGNYLAWYQQKPGQAPRLLIYAASSRATGIPDRFSGGGSGTHFTLTISRLEPEDFAVYYCQQYGSSPRAFGQGTKVEIK
8.53
